target: T1, human LTβR extracellular domain fused with an Fc fragment at the C-terminus (human, UniProt P36941 31-227); assay: phage ELISA
T1 construct: extracellular domain; Bought; also called hLTβR; not shown: Fc fragment at the C-terminus
T1 sequence (P36941 31-227): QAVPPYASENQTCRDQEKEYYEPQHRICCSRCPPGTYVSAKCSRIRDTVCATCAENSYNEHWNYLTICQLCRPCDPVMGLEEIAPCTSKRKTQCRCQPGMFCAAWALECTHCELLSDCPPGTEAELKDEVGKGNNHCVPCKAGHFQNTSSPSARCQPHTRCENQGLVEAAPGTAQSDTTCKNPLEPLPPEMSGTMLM
property-name: binding result

Worked cases, answers included:
>  <binder>
LIGHT-68 (ligand, Printed mutations: S160G, T161G, L220S, L227T; Soluble protein carries an N-terminal His tag) DGPAGSWEQLIQERRSHEVNPAAHLTGANSSLTGSGGPLLWETQLGLAFLRGLSYHDGALVVTKAGYYYIYSKVQLGGVGCPLGLAGGITHGLYKRTPRYPEELELLVSQQSPCGRATSSSRVWWDSSFLGGVVHLEAGEKVVVRVSDERLVRTRDGTRSYFGAFMV

>  <result>
binds

$$$$
>  <binder>
LIGHT-73 (ligand, Printed mutations: Q117E, T161G, L220S, L227T; Soluble protein carries an N-terminal His tag) DGPAGSWEQLIQERRSHEVNPAAHLTGANSSLTGSGGPLLWETELGLAFLRGLSYHDGALVVTKAGYYYIYSKVQLGGVGCPLGLASGITHGLYKRTPRYPEELELLVSQQSPCGRATSSSRVWWDSSFLGGVVHLEAGEKVVVRVSDERLVRTRDGTRSYFGAFMV

>  <result>
binds

$$$$
>  <binder>
LIGHT-51 (ligand, Printed mutations: A101D, S160N, L220S; Soluble protein carries an N-terminal His tag) DGPAGSWEQLIQERRSHEVNPAAHLTGDNSSLTGSGGPLLWETQLGLAFLRGLSYHDGALVVTKAGYYYIYSKVQLGGVGCPLGLANTITHGLYKRTPRYPEELELLVSQQSPCGRATSSSRVWWDSSFLGGVVHLEAGEKVVVRVSDERLVRLRDGTRSYFGAFMV

>  <result>
binds

$$$$
>  <binder>
LIGHT-74 (ligand, Printed mutations: Q117N, S160G, T161G, L220S, L227T; Soluble protein carries an N-terminal His tag) DGPAGSWEQLIQERRSHEVNPAAHLTGANSSLTGSGGPLLWETNLGLAFLRGLSYHDGALVVTKAGYYYIYSKVQLGGVGCPLGLAGGITHGLYKRTPRYPEELELLVSQQSPCGRATSSSRVWWDSSFLGGVVHLEAGEKVVVRVSDERLVRTRDGTRSYFGAFMV

>  <result>
binds

$$$$

Lookup: Item LIGHT-83 (ligand, Printed mutations: Q117E, S160G, T161P, L220S, E222S, L227T; Soluble protein carries an N-terminal His tag) DGPAGSWEQLIQERRSHEVNPAAHLTGANSSLTGSGGPLLWETELGLAFLRGLSYHDGALVVTKAGYYYIYSKVQLGGVGCPLGLAGPITHGLYKRTPRYPEELELLVSQQSPCGRATSSSRVWWDSSFLGGVVHLEAGEKVVVRVSDSRLVRTRDGTRSYFGAFMV has what recorded binding result?
Found: binds

Lookup: Item LIGHT-78 (ligand, Printed mutations: Q117N, S160G, T161S, L220S, L227T; Soluble protein carries an N-terminal His tag) DGPAGSWEQLIQERRSHEVNPAAHLTGANSSLTGSGGPLLWETNLGLAFLRGLSYHDGALVVTKAGYYYIYSKVQLGGVGCPLGLAGSITHGLYKRTPRYPEELELLVSQQSPCGRATSSSRVWWDSSFLGGVVHLEAGEKVVVRVSDERLVRTRDGTRSYFGAFMV has what recorded binding result?
Found: binds
